Target: Induced myeloid leukemia cell differentiation protein Mcl-1 (Homo sapiens)
Test: blockers of Bid binding to Mcl-1 – biochemical, TR-FRET, dose response (AID 1418)
Details: Mcl-1/Bid peptide binding, TR-FRET (europium/Dy647), 2 hr
Calls of active or inactive are those of the source. The rule behind the calls is not given here.
Provide the reported IC50 of each item.

Problem: State the recorded IC50 for this entry: O=C(NC(Cc1ccccc1)C(=O)O)c1ccc(S(=O)(=O)N2CCCCC2)cc1 (configuration not stated)
Result: > 54 µM (inactive)

Problem: Param item: `C/C(C/C(C)=C1/SC(=S)NC1=O)=C1\SC(=S)NC1=O`
Result: 1.25 µM

Problem: Param item: `N/C(CS(=O)(=O)c1ccc(F)cc1)=N\O`
Result: > 54 µM (inactive)

Problem: Param item: `O=C(CSc1nc(-c2ccccc2)nc2c1Cc1ccccc1O2)Nc1ccc(C(=O)O)cc1`
Result: 3.03 µM

Problem: Param item: `O=C(Cc1ccccc1)Nc1scc(-c2ccccc2)c1C(=O)N1CCOCC1`
Result: > 54 µM (inactive)

Problem: Param item: `O=C(NC(=S)Nc1ccc(S(=O)(=O)N2CCCCC2)cc1)c1cccs1`
Result: > 54 µM (inactive)

Problem: Param item: `O=C(CP(=O)(c1ccccc1)c1ccccc1)Nc1nc2ccc(Cl)cc2s1`
Result: > 54 µM (inactive)

Problem: Param item: `O=C(N/N=C/C(Br)=C\c1ccccc1)c1ccco1`
Result: > 54 µM (inactive)

Problem: Param item: `Cc1ccc(Nc2cc(=O)n(C3CCCCC3)c(=O)[nH]2)cc1C`
Result: > 54 µM (inactive)

Problem: Param item: `O=C(CN1C(=O)c2cccc3cccc1c23)Nc1ccc(S(=O)(=O)N2CCOCC2)cc1`
Result: > 54 µM (inactive)

Problem: Param item: `Nc1cccc(C(=O)OCC(=O)Nc2cccc3c2C(=O)c2ccccc2C3=O)c1`
Result: 2.38 µM

Problem: Param item: COc1ccc(-c2nnn(CC(=O)N(CCCO)C(C(=O)NC3CCCC3)c3ccncc3)n2)cc1 (configuration not stated)
Result: > 54 µM (inactive)

Problem: Param item: CC1(c2ccc(Cl)cc2Cl)OCC(Cn2ccnc2)O1 (configuration not stated)
Result: > 54 µM (inactive)

Problem: Param item: `O=C(O)CCCN1C(=O)/C(=C/c2cn(-c3ccccc3)nc2-c2cccs2)SC1=S`
Result: 6.58 µM

Problem: Param item: `O=C(O)[C@H](Cc1ccccc1)N1Cc2ccccc2C1=O`
Result: 22.3 µM

Problem: Param item: CCc1cc(C(c2ccc(F)cc2)N2CCOCC2)c(NC(=O)c2ccccc2)s1 (configuration not stated)
Result: > 54 µM (inactive)

Problem: Param item: `O=C(N=Nc1c(O)[nH]c2ccc(Br)cc12)c1cc(-c2cccs2)nc2ccccc12`
Result: 0.54 µM

---

Target: Induced myeloid leukemia cell differentiation protein Mcl-1 (Homo sapiens) (UniProt Q07820)
Sequence (Q07820 whole entry, looked up): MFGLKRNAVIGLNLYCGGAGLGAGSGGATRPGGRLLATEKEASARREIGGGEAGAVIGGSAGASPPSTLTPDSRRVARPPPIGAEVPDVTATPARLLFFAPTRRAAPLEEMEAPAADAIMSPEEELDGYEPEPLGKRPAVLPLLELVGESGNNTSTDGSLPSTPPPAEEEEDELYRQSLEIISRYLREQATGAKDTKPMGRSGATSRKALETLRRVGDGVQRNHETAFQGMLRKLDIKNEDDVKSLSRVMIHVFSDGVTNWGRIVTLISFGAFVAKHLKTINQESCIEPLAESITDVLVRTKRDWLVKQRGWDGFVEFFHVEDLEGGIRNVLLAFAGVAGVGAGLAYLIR
Assay: blockers of Bid binding to Mcl-1 – biochemical, TR-FRET, dose response (AID 1418)
Conditions: Mcl-1/Bid peptide binding, TR-FRET (europium/Dy647), 2 hr
Active and inactive are the calls of the source. No rule for the calls is given here.
Provide the reported IC50 of each item.

Problem: State the recorded IC50 for this entry: `Cc1ccc(S(=O)(=O)/N=C2/C=C(Sc3ncn[nH]3)C(=O)c3ccccc32)cc1`
Result: 2.73 µM

Problem: Param item: `O=C1N=c2ccccc2=C1c1c(O)n(-c2cccc(F)c2)[nH]c1=O`
Result: 1.56 µM

Problem: Param item: `COc1ccccc1N1CCN(CC(=O)c2c(C)[nH]c3ccccc23)CC1`
Result: > 54 µM (inactive)

Problem: Param item: `Cc1ccc(NC(=S)N2CCN(c3ncccn3)CC2)cc1C`
Result: > 54 µM (inactive)

Problem: Param item: `COC(CNC(=O)c1ccc2nc(-c3cccs3)c(-c3cccs3)nc2c1)OC`
Result: > 54 µM (inactive)

Problem: Param item: `COc1cccc(Oc2c(C)oc3c(CN4CCCC4)c(O)ccc3c2=O)c1`
Result: > 54 µM (inactive)

Problem: Param item: `Cc1ccc(CNC(=O)c2ccc3nc4[nH]c5ccccc5c4nc3c2)cc1`
Result: 6.82 µM

Problem: Param item: `Cc1cccc(CN2CCc3c(OCC(=O)NCc4ccco4)cccc3C2=O)c1`
Result: > 54 µM (inactive)

Problem: Param item: `O=c1c2ccccc2nc(CSc2nnnn2-c2ccccc2)n1-c1ccccc1`
Result: 18.7 µM

Problem: Param item: `O=C(Nc1ccccn1)c1ccc([N+](=O)[O-])cc1Cl`
Result: > 54 µM (inactive)

Problem: Param item: `CC(C)(C)CC(C)(C)NC(=S)NC1CCN(Cc2ccccc2)CC1`
Result: > 54 µM (inactive)

Problem: Param item: `Cc1cc(/C=N/NC(=O)c2cccs2)c(C)n1-c1ccccc1`
Result: > 54 µM (inactive)

Problem: Param item: CC(C)C(C(=O)O)N1C(=O)/C(=C/C=C/c2ccco2)SC1=S (stereo unspecified)
Result: 2.35 µM

Problem: Param item: `Cc1ccc(N2CCN(C3=NC(=O)/C(=C\c4cccs4)S3)CC2)cc1`
Result: > 54 µM (inactive)

Problem: Param item: `CCN(CC)C(=O)COC(=O)c1cc(-c2ccc(OC)cc2)nc2ccccc12`
Result: > 54 µM (inactive)

Problem: Param item: `COc1cc2c(cc1OC)-c1cc(NCc3ccccn3)nc(=O)n1CC2`
Result: 0.55 µM

Problem: Param item: `CCn1c(SCC(=O)NCc2ccco2)nnc1-c1ccc(N)cc1`
Result: > 54 µM (inactive)

Problem: Param item: `Cc1cccc(N(CC(=O)NC2CCCC2)C(=O)c2cc3cc4cccc(C)c4nc3s2)c1C`
Result: > 54 µM (inactive)

Problem: Param item: `N#C/C(=C\c1ccc(N2CCCC2)c([N+](=O)[O-])c1)c1nc2ccccc2[nH]1`
Result: 21.6 µM

Problem: Param item: O=C(CC(C(=O)O)c1c[nH]c2ccccc12)c1ccccc1 (stereo unspecified)
Result: > 54 µM (inactive)

Problem: Param item: `c1coc(-c2nc3c4c5c(sc4ncn3n2)CCCC5)c1`
Result: > 54 µM (inactive)

---

Target: Induced myeloid leukemia cell differentiation protein Mcl-1 (Homo sapiens)
Assay: blockers of Bid binding to Mcl-1 – biochemical, TR-FRET, dose response (AID 1418)
Details: Mcl-1/Bid peptide binding, TR-FRET (europium/Dy647), 2 hr
Calls of active or inactive are those of the source. No rule for the calls is given here.
// one of 1 (active), 0 (inactive), no free text

Problem: Dear colleague, could you share the recorded outcome for `Cc1ccc(-c2nnc(SCC(=O)N/N=C/c3ccc(C)s3)n2-c2ccc(C)cc2)cc1` when you have a moment?
Result: 0

Problem: Param item: C#CCOCCOCCOCCNc1nc(N2CCN(C(=O)[C@H](CCCCN)n3cc(C(N)CC(C)C)nn3)CC2)nc(N2CCN(C(=O)[C@H](CCC(=O)O)n3cc(C(N)[C@H](C)CC)nn3)CC2)n1 (stereo partly specified)
Result: 1

Problem: Param item: `COc1cccc(OC)c1C(=O)N1CCN(Cc2ccncc2)CC1`
Result: 0

Problem: Param item: `Cc1sc(NC(=O)c2sc3nc4c(C)cccc4cc3c2N)c(C#N)c1C`
Result: 1

Problem: Param item: `Cc1cccc(N2CCN(C(=S)Nc3ccc4nc(N5CCN(C)CC5)cc(C)c4c3)CC2)c1C`
Result: 1

Problem: Param item: `NC(=O)COc1c(-c2ccccc2)oc2ccccc2c1=O`
Result: 0

Problem: Param item: `Cc1cc(=O)[nH]c(SCC(=O)c2ccc3c(c2)NC(=O)CO3)n1`
Result: 0

Problem: Param item: `O=C1OC(c2cccs2)=N/C1=C/c1ccc(-c2cccc(C(=O)O)c2)o1`
Result: 1

Problem: Param item: C=CC(c1ccccc1)C(C(=O)c1ccccc1)N(C)C (stereo unspecified)
Result: 0

Problem: Param item: `O=[N+]([O-])c1cc(Cl)cc(/C=N/NC(=S)Nc2ccc(S(=O)(=O)N3CCOCC3)cc2)c1O`
Result: 0

Problem: Param item: `COc1cccc(OC)c1C(=O)N1CCN(c2ccccn2)CC1`
Result: 0

Problem: Param item: `NC(=O)c1cnn2c(-c3cccc(C(F)(F)F)c3)ccnc12`
Result: 0

Problem: Param item: `COc1cc(/C=C2\SC(=O)N(c3cccc(Cl)c3)C2=O)cc([N+](=O)[O-])c1O`
Result: 1

Problem: Param item: `COc1ccc(N=Nc2ccc(O)c3ncccc23)cc1`
Result: 1

Problem: Param item: `CCc1ccc2c(CN(CC)Cc3nc4ccccc4c(=O)[nH]3)cc(=O)oc2c1`
Result: 0

Problem: Param item: CCCCCCCCCCCCCCCC(O)C(N)CO (stereo unspecified)
Result: 0

Problem: Param item: `CCN1C(=O)c2cccc3c(NC(=O)C4CCCCC4)ccc1c23`
Result: 0

Problem: Param item: CC1C(c2ccccc2)N(C)CCC12NC(=O)NC2=O (stereo unspecified)
Result: 0

Problem: Param item: `O=C(COC(=O)CCS(=O)(=O)c1ccc(Cl)cc1)Nc1ncc(Cl)cc1Cl`
Result: 0

Problem: Param item: `Cc1c(NC(=O)COC(=O)c2cc(-c3ccc(-c4ccccc4)cc3)nc3ccccc23)c(=O)n(-c2ccccc2)n1C`
Result: 1

Problem: Param item: COc1ccccc1CCc1nnc(CCC(=O)NC(C)Cc2cccnc2)o1 (stereo unspecified)
Result: 0

Problem: Param item: `COc1cc(/C=N/NC(=O)c2ccc(CN3c4cccc5cccc(c45)S3(=O)=O)cc2)cc(OC)c1O`
Result: 1

Problem: Param item: `CCN1C(=O)/C(=C\c2ccc(-c3ccc([N+](=O)[O-])cc3OC)o2)SC1=Nc1cccc(C(=O)O)c1`
Result: 0

Problem: Param item: `Cc1cccc(NC(=O)C2CCN(c3nc(C)cc(C)n3)CC2)c1`
Result: 0

Problem: Param item: `O=C1c2cccc3cc([N+](=O)[O-])cc(c23)C(=O)N1/N=C/c1ccc(O)cc1O`
Result: 1

Problem: Param item: CCOc1ccc(C(Nc2cccnc2)c2cc(Cl)c3cccnc3c2O)cc1 (stereo unspecified)
Result: 1

Problem: Param item: `Cc1ccc(Cn2nc(C)c(NC(=O)CSc3nc4c(c(C(F)(F)F)n3)CCc3ccccc3-4)c2C)cc1`
Result: 1

Problem: Param item: `Cc1ccc(C(C)C)cc1NC(=O)Nc1ccc([N+](=O)[O-])cc1`
Result: 0

Problem: Param item: `S=C(NCc1ccc(Cl)cc1)NC1CCN(Cc2ccccc2)CC1`
Result: 0

Problem: Param item: `CC(C)N(C(=O)c1sc2cc([N+](=O)[O-])ccc2c1Cl)C(C)C`
Result: 0

Problem: Param item: `COC(=O)c1ccc(CNC(=O)c2c3c(nc4ccccc24)CCN(Cc2ccccc2)C3)cc1`
Result: 0
